assay: Assessment of solubility: HT solubility in pION buffer, UV spectrophotometry; conditions: pION system solution buffer, pH 4.5, pH 4.5, aqueous buffer, kinetic from dmso stock, Solubility (pH 4.5), pH 4.5 buffer, 16-19 h incubation, 1.0% DMSO
This section presents compounds with their documented solubility values.

// solved cases for solubility follow
Asked: Give its solubility value. Item: Cc1ccc(OCc2ccc(CN3CCS(=O)(=O)CC3)cc2C)c(-c2csc(N3CC4(CC4C(=O)O)C3)n2)c1 (stereo not shown)
Given back: < 0.1 µg/mL

Asked: Give its solubility value. Item: `Cc1cc(CN2CCOCC2)ccc1COc1c(C)cccc1-c1csc(N2CCC(C(=O)O)CC2)n1`
Given back: > 52 µg/mL

Asked: Give its solubility value. Item: Cc1ccc(OCc2ccc(CN3CCN(C(C)C)C(=O)C3)cc2C)c(-c2csc(N3CC4CCC(C3)C4C(=O)O)n2)c1 (stereo not shown)
Given back: < 0.1 µg/mL

From here, focus on the item given below.
Asked: Give its solubility value. Item: `Cc1ccc(OCc2ccc(CN3CCC(S(C)(=O)=O)CC3)cc2C)c(-c2csc(N3CCC(C(=O)O)CC3)n2)c1`
Given back: > 70 µg/mL

---

This section presents compounds with their documented solubility values.
test: Assessment of solubility: HT solubility in pION buffer, UV spectrophotometry; conditions: pION system solution buffer, pH 7.4, pH 7.4, aqueous buffer, kinetic from dmso stock, Solubility (pH 7.4), pH 7.4 buffer, 16-19 h incubation, 1.0% DMSO

// solved cases for solubility follow
Asked: Give its solubility value. Item: Cc1ccc(OCc2ccc(CN3CCS(=O)(=O)CC3)cc2C)c(-c2csc(N3CCC4(C(=O)O)CC4C3)n2)c1 (centres unmarked) [Compound 217]
Given back: 34 µg/mL

Asked: Give its solubility value. Item: Cc1ccc(OCc2ccc(CN3CCN4CCCC4C3)cc2C)c(-c2csc(N3CCC(C(=O)O)CC3)n2)c1 (centres unmarked) [Compound 350]
Given back: > 56 µg/mL

Asked: Give its solubility value. Item: Cc1ccc(OCc2ccc(C(=O)N3CCCCC3)cc2C)c(-c2csc(N3CC4C(C3)C4C(=O)O)n2)c1 (centres unmarked) [Compound 34]
Given back: > 53 µg/mL

Asked: Give its solubility value. Item: Cc1ccc(OCc2ccc(C(=O)N(C)Cc3cnn(C)c3)cc2C)c(-c2csc(N3C[C@H]4CC[C@@H](C3)[C@H]4C(=O)O)n2)c1 [Compound 315]
Given back: > 60 µg/mL

Others:
Asked: Give its solubility value. Item: Cc1cc(C(=O)N2CCCCC2)ccc1COc1ccccc1-c1csc(N2CCC(C(=O)O)C(C)C2)n1 (centres unmarked) [Compound 42]
Given back: > 53 µg/mL

---

This section presents compounds with their documented solubility values.
assay: Assessment of solubility: HT solubility in pION buffer, UV spectrophotometry; conditions: pION system solution buffer, pH 4.5, pH 4.5, aqueous buffer, kinetic from dmso stock, Solubility (pH 4.5), pH 4.5 buffer, 16-19 h incubation, 1.0% DMSO

// solved cases for solubility follow
Asked: Give its solubility value. Item: Cc1cc(CN2CCOCC2)ccc1COc1c(C)cccc1-c1csc(N2C3CCC2CC(C(=O)O)C3)n1 (centres unmarked)
Given back: > 58 µg/mL

Asked: Give its solubility value. Item: `Cc1ccc(OCc2ccc(CN3CCOCC3)cc2C)c(-c2csc(N(C)CCCC(=O)O)n2)c1`
Given back: > 55 µg/mL

Asked: Give its solubility value. Item: `Cc1ccc(OCc2ccc(C(=O)N3CCOCC3)cc2C)c(-c2csc(N3C[C@H]4CC[C@@H](C3)[C@H]4C(=O)O)n2)c1`
Given back: < 0.1 µg/mL

Asked: Give its solubility value. Item: Cc1cc(CN2CCOCC2)ccc1COc1ccccc1-c1csc(N2CC3CCC(C2)C3C(=O)O)n1 (centres unmarked)
Given back: > 60 µg/mL

Asked: Give its solubility value. Item: `COCCN(C)Cc1ccc(COc2ccc(C)cc2-c2csc(N3CCC(C(=O)O)CC3)n2)c(C)c1`
Given back: > 63 µg/mL

Others:
Asked: Give its solubility value. Item: `Cc1ccc(OCc2ccc(CNC3CCCCC3)cc2C)c(-c2csc(N3CCC(C(=O)O)CC3)n2)c1`
Given back: > 64 µg/mL

Asked: Give its solubility value. Item: `Cc1ccc(OCc2ccc(C(=O)N3CCCCC3)cc2C)c(-c2csc([C@H]3CC[C@H](C(=O)O)CC3)n2)c1`
Given back: 0.25 µg/mL

Asked: Give its solubility value. Item: `Cc1ccc(OCc2ccc(C(=O)N(C)CCCO)cc2C)c(-c2csc(N3C[C@H]4CC[C@@H](C3)[C@H]4C(=O)O)n2)c1`
Given back: 0.92 µg/mL

---

This section presents molecules with their documented solubility values.
test: Assessment of solubility: HT solubility in pION buffer, UV spectrophotometry; conditions: pION system solution buffer, pH 4.5, pH 4.5, aqueous buffer, kinetic from dmso stock, Solubility (pH 4.5), pH 4.5 buffer, 16-19 h incubation, 1.0% DMSO

// solved cases for solubility follow
Asked: Give its solubility value. Item: `Cc1ccc(OCc2ccc(C(=O)N3CCCCC3)c(C)c2)c(-c2csc(N3C[C@H]4CC[C@@H](C3)[C@H]4C(=O)O)n2)c1`
Given back: < 0.1 µg/mL

Asked: Give its solubility value. Item: `Cc1ccc(OCc2ccc(CN3CCS(=O)(=O)CC3)cc2C#N)c(-c2csc(N3C[C@H]4CC[C@@H](C3)[C@H]4C(=O)O)n2)c1`
Given back: < 0.1 µg/mL

From here, focus on the item given below.
Asked: Give its solubility value. Item: `Cc1ccc(OCc2ccc(CN(C)CC3CCOCC3)cc2C#N)c(-c2csc(N3CCC(C(=O)O)CC3)n2)c1`
Given back: > 68 µg/mL

---

This section presents molecules with their documented EC50 values.
Biological target: Recombinant human soluble guanylate cyclase (sGC), alpha 1 / beta 1 subunits, heme-free (Homo sapiens, UniProt Q02108+Q02153)
Construct: histidine tag (C); made in house; host or cells: Sf9 insect cells (baculovirus coinfection)
Sequence (Q02108 1-690 partner): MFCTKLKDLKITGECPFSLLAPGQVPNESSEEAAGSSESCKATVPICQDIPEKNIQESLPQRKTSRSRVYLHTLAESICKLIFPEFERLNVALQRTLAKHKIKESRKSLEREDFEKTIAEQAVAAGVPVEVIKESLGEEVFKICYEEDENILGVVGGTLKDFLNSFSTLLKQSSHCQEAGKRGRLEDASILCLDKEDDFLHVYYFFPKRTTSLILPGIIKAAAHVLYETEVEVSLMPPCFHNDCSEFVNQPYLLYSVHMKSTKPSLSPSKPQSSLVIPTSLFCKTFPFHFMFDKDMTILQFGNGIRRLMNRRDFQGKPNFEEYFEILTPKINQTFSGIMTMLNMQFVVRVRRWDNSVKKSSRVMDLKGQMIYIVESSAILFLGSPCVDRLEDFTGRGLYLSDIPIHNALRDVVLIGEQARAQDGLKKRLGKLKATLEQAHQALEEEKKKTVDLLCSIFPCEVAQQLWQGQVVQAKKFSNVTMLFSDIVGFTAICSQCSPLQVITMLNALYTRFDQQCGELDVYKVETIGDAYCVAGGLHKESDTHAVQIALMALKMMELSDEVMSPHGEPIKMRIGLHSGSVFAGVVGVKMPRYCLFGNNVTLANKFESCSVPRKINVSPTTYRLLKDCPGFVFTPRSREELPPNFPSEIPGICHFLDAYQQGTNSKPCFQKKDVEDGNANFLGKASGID
Sequence (Q02153 1-619): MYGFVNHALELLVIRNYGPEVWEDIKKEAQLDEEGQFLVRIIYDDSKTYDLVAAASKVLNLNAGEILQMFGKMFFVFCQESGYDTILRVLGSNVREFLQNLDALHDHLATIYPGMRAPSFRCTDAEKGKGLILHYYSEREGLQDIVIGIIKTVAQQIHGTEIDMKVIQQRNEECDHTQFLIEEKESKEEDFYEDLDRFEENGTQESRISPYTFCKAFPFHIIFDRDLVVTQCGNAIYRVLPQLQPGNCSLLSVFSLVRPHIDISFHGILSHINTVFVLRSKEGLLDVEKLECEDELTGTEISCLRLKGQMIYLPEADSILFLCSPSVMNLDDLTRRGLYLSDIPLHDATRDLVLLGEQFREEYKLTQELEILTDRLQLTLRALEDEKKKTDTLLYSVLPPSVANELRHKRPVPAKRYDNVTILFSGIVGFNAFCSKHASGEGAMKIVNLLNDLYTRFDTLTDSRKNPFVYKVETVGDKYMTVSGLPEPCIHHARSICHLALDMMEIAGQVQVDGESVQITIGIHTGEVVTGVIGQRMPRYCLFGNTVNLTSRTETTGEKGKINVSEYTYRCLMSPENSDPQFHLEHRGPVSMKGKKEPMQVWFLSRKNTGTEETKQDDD
Assay: Molecular assay: cGMP formation by heme-free recombinant sGC (CisBio cGMP detection kit)
Type: biochemical
Settings: 300 pM heme-free sGC, 37° C., 60 min, cGMP readout; read-out: EC50 nM, Activity of Compounds in Molecular Assay
# unit: nM | format: bare number

// solved cases for EC50 follow
Asked: Give its EC50 value. Item: Cc1cc(CN2CCS(=O)(=O)CC2)ccc1COc1ccccc1-c1csc(N2CCC(C(=O)O)CC2C)n1 (stereo not shown) [Compound 108]
Given back: 100

Asked: Give its EC50 value. Item: Cc1cc(CN2CCOCC2)ccc1COc1ccc(F)cc1-c1csc(N2CCC(C(=O)O)CC2C)n1 (stereo not shown) [Compound 61]
Given back: 440

Asked: Give its EC50 value. Item: Cc1ccc(OCc2ccc(C(=O)N3CCCCC3)cc2C)c(-c2csc(N3CCC(C(=O)O)CC3)n2)c1 [Compound 39]
Given back: 27

Others:
Asked: Give its EC50 value. Item: Cc1ccc(OCc2ccc(CN3CCOCC3)cc2C)c(-c2csc(N3CCC(C(=O)O)CC3C)n2)c1 (stereo not shown) [Compound 177]
Given back: 170

Asked: Give its EC50 value. Item: Cc1cc(CN2CCOCC2)ccc1COc1ccc(F)cc1-c1csc(N2CCC(C(=O)O)C(C)C2)n1 (stereo not shown) [Compound 58]
Given back: 480

Asked: Give its EC50 value. Item: Cc1ccc(OCc2ccc(CN3CCN(C(=O)N(C)C)CC3)cc2C)c(-c2csc(N3CCC(C(=O)O)CC3)n2)c1 [Compound 199]
Given back: 140

Asked: Give its EC50 value. Item: Cc1cc(CN2CCOCC2)ccc1COc1ccc(Cl)cc1-c1csc(N2CCC(C(=O)O)C(C)C2)n1 (stereo not shown) [Compound 83]
Given back: 210

Asked: Give its EC50 value. Item: Cc1cc(C(=O)N2CCCCC2)ccc1COc1ccccc1-c1csc(C2=CCC(C(=O)O)CC2)n1 (stereo not shown) [Compound 8]
Given back: 330

Asked: Give its EC50 value. Item: Cc1ccc(OCc2ccc(CN3CCOCC3)cc2C)c(-c2csc(NCCCC(=O)O)n2)c1 [Compound 4]
Given back: 760

Asked: Give its EC50 value. Item: Cc1ccc(OCc2ccc(C(=O)N3CCOCC3)cc2C)c(-c2csc(N3CCC(C(=O)O)CC3)n2)c1 [Compound 49]
Given back: 130
